Collected inhibition at 20 µM values appear next to each entry.
- Tested on: Human PBMC stimulated with phytohemagglutinin (PHA)
- assayDetails: Primary mitogenic response assay (PHA), [3H]TdR uptake
- Assay type: cell-based
- conditionSummary: Homo sapiens, PBMC, 96 h; Table 6; mitogenic response; tyrphostin 20 μM

# compoundString, inhibition at 20 µM / %
records = [
    ("N#CC(=Cc1ccc(O)c(O)c1)C(=O)NCc1ccccc1", 60),
    ("CC(C)(C)n1nc(-c2ccc(Cl)cc2)c2c(N)ncnc21", 98),
    ("COc1ccc(-c2nn(C(C)(C)C)c3ncnc(N)c23)cc1OC", 96),
    ("N#CC(=Cc1c[nH]c2ccccc12)c1[nH]nc(N)c1C#N", 96),
    ("COc1cc2ncnc(Nc3ccc(O)cc3)c2cc1OC", 70),
    ("N#CC(=Cc1cc(O)c(O)c(CSCCc2ccccc2)c1)C(=O)NCCCCc1ccccc1", 70),
    ("Cc1ccc(-c2nn(C(C)(C)C)c3ncnc(N)c23)cc1", 98),
    ("N#CC(=Cc1ccc(O)c(O)c1)C(=S)NCc1ccccc1", 70),
    ("CC(C)(C)c1cc(C=C(C#N)C(N)=S)cc(C(C)(C)C)c1O", 68),
]
